Measured values drawn from patent US8835445B2 for this set.

Tested on: S. aureus
test protocol: Antibacterial activity (MIC), whole-cell bacterial growth inhibition
Assay type: cell-based, Staphylococcus aureus
setup conditions: Staphylococcus aureus, S. aureus in 20% serum; read-out: MIC in μg/ml S. aureus in 20% serum
metric name: MIC (µg/mL)
Supply the numeric figure in µg/mL, leaving out any unit text.

Reference set, count: 5
1. Cc1cc2c(N)nc(N)nc2cc1-c1cccc2[nH]ccc12 [Compound 9]; 1
2. COc1ccc(OC)c(-c2cc3nc(N)nc(N)c3cc2C)c1 [Compound 8]; 1
3. COc1cc(-c2cc3nc(N)nc(N)c3cc2C)c(Cl)cn1 [Compound 28]; 1
4. Cc1cc2c(N)nc(N)nc2cc1-c1cccc(C#N)c1 [Compound 11]; 2
5. COc1ccc(-c2cc3nc(N)nc(N)c3cc2Cn2ccnc2)cc1OC [Compound 10]; 2

## Input Please report the measured MIC for Cc1cc2nc(-c3nccs3)n(-c3cc4nc(N)nc(N)c4cc3Cl)c2cc1C [Compound 25]
## Output 1

## Input Please report the measured MIC for COc1ccc2nc(-c3ccco3)n(-c3ccc4c(N)nc(N)nc4c3)c2n1 [Compound 37]
## Output 0.5

====

tested target: S. aurues DHFR (Staphylococcus aureus, UniProt P0A017)
test protocol: biochemical
Format: biochemical
setup conditions: S. aureus DHFR
I'd appreciate it if you could label each record using Ki and these ranges: low-valued (below 0.03 nM), mid-valued (0.03 nM to below 0.7 nM), high-valued (0.7 nM or more)

1. Cc1cc2nc(-c3cccs3)n(-c3ccc4c(N)nc(N)nc4c3)c2cc1C [Compound 18]; low-valued
2. Cc1cc2nc(-c3nccs3)n(-c3ccc4c(N)nc(N)nc4c3)c2cc1C [Compound 22]; low-valued
3. Cc1cc2nc(N3CCOCC3)n(-c3ccc4c(N)nc(N)nc4c3)c2cc1C [Compound 19]; mid-valued

## Input Assign a bin to Cc1cc2c(N)nc(N)nc2cc1-c1ccc(N)cc1 [Compound 5]
## Output high-valued

## Input Assign a bin to CC(=O)c1cccc(-c2cc3nc(N)nc(N)c3cc2C)c1 [Compound 7]
## Output mid-valued

====

System: S. aureus
test protocol: Antibacterial activity (MIC), whole-cell bacterial growth inhibition
Type: cell-based, Staphylococcus aureus
setup conditions: Staphylococcus aureus, S. aureus in 20% serum; read-out: MIC in μg/ml S. aureus in 20% serum
Hi! Just check whether MIC is below 1 µg/mL. Below gives condition met, equal or above gives condition not met.

Solved entries (count: 6):
1. CCOc1ccc2ccccc2c1-c1cc2nc(N)nc(N)c2cc1C [Compound 31]; condition met
2. COc1ccccc1-c1ccc2c(N)nc(N)nc2c1 [Compound 1]; condition not met
3. COc1cc2nc(-c3nccs3)n(-c3cc4nc(N)nc(N)c4cc3Cl)c2cc1OC [Compound 23]; condition met
4. COc1ccc(OC)c(-c2ccc3c(N)nc(N)nc3c2)c1 [Compound 3]; condition not met
5. Cc1cc2c(N)nc(N)nc2cc1-c1c[nH]c2ccccc12 [Compound 41]; condition met
6. Cc1cc2nc(N3CCOCC3)n(-c3ccc4c(N)nc(N)nc4c3)c2cc1C [Compound 19]; condition not met

## Input MIC under 1 µg/mL? Item: Cc1cc2nc(-c3ccccn3)n(-c3ccc4c(N)nc(N)nc4c3)c2cc1C [Compound 16]
## Output condition met

## Input MIC under 1 µg/mL? Item: COc1ncc(-c2cc3nc(N)nc(N)c3cc2C)c(OC)n1 [Compound 29]
## Output condition met

## Input MIC under 1 µg/mL? Item: Cc1cc2nc(-c3ccsc3)n(-c3ccc4c(N)nc(N)nc4c3)c2cc1C [Compound 21]
## Output condition met

## Input MIC under 1 µg/mL? Item: Cc1cc2nc(-c3nccs3)n(-c3ccc4c(N)nc(N)nc4c3)c2cc1C [Compound 22]
## Output condition met

## Input MIC under 1 µg/mL? Item: Cc1cc2c(N)nc(N)nc2cc1-c1cccc(CC#N)c1 [Compound 13]
## Output condition not met

## Input MIC under 1 µg/mL? Item: Cc1cc2c(N)nc(N)nc2cc1-c1cnc2[nH]ccc2c1 [Compound 27]
## Output condition not met

## Input MIC under 1 µg/mL? Item: Nc1ccc(-c2ccc3c(N)nc(N)nc3c2)cc1 [Compound 4, 7-(4-aminophenyl)quinazoline-2,4-diamine]
## Output condition not met

## Input MIC under 1 µg/mL? Item: Cc1cc2nc(-c3cccs3)n(-c3ccc4c(N)nc(N)nc4c3)c2cc1C [Compound 18]
## Output condition met

====

log10(Ki) for assorted molecules
tested target: S. aurues DHFR (Staphylococcus aureus, UniProt P0A017)
test protocol: biochemical
Assay type: biochemical
setup conditions: S. aureus DHFR
Scale: log10; quantity: Ki; unit before log: nM

1) COc1cc(-c2cc3nc(N)nc(N)c3cc2C)cc(OC)c1OC; -0.04
2) CCOc1ccc(C(=O)N(CC)CC)cc1-c1cc2nc(N)nc(N)c2cc1C; -1.60
3) Cc1cc2c(N)nc(N)nc2cc1-c1cccc(C#N)c1; 0.08
4) Nc1ccc(-c2ccc3c(N)nc(N)nc3c2)cc1; 0.43
5) COc1cc2nc(-c3nccs3)n(-c3ccc4c(N)nc(N)nc4c3)c2cc1OC; -0.80
6) COc1cc(-c2cc3nc(N)nc(N)c3cc2C)c(Cl)cn1; -0.14
7) Cc1cc2c(N)nc(N)nc2cc1-c1cc(N)cc(C#N)c1; -0.19
8) COc1cc2nc(-c3nccs3)n(-c3cc4nc(N)nc(N)c4cc3Cl)c2cc1OC; -1.96
9) Cc1cc2nc(-c3nccs3)n(-c3cc4nc(N)nc(N)c4cc3Cl)c2cc1C [Compound 25]; -1.96
10) CCOc1ccc(-c2cccc(NS(C)(=O)=O)c2)cc1-c1ccc2c(N)nc(N)nc2c1; -1.70

## Input Please report the measured log10(Ki) for Cc1cc2c(N)nc(N)nc2cc1-c1cccc(CC#N)c1
## Output -0.30

## Input Please report the measured log10(Ki) for COCCn1c(-c2ccc3c(N)nc(N)nc3c2)nc2cc(C)c(C)cc21
## Output 0.20

## Input Please report the measured log10(Ki) for Cc1cc2nc(C3CC3)n(-c3ccc4c(N)nc(N)nc4c3)c2cc1C
## Output -0.85

====

tested target: S. aurues DHFR (Staphylococcus aureus)
test protocol: biochemical
Format: biochemical
setup conditions: S. aureus DHFR
I'd appreciate it if you could label each record using Ki and these ranges: bottom range = under 0.03 nM, center range = from 0.03 nM up to 0.6 nM, top range = 0.6 nM and over

1) COc1cnc(Cl)cc1-c1cc2nc(N)nc(N)c2cc1C [Compound 38]; top range
2) Cc1cc2nc(-c3ccsc3)n(-c3ccc4c(N)nc(N)nc4c3)c2cc1C [Compound 21]; bottom range
3) CCOc1ccc2ccccc2c1-c1cc2nc(N)nc(N)c2cc1C [Compound 31]; bottom range

## Input Assign a bin to COc1ccc(-c2cc3nc(N)nc(N)c3cc2Cn2ccnc2)cc1OC [Compound 10]
## Output center range

## Input Assign a bin to Cc1cc2nc(-c3ccccn3)n(-c3ccc4c(N)nc(N)nc4c3)c2cc1C [Compound 16]
## Output bottom range

## Input Assign a bin to Nc1nc(N)c2ccc(-c3ccccc3N)cc2n1 [Compound 2, 7-(2-aminophenyl)quinazoline-2,4-diamine]
## Output top range

## Input Assign a bin to Cc1cc2c(N)nc(N)nc2cc1-c1c[nH]c2ccccc12 [Compound 41]
## Output center range

## Input Assign a bin to COc1cc2nc(-c3nccs3)n(-c3cc4nc(N)nc(N)c4cc3C)c2cc1OC [Compound 24]
## Output bottom range

## Input Assign a bin to CC(=O)c1cccc(-c2ccc3c(N)nc(N)nc3c2)c1 [Compound 6]
## Output top range
